Catalogue of Hepatotoxicity (steatosis) values
Conditions: human
Respond with the number and no other words.

Solved entries (count: 6):
CN1C(=O)CC(=O)N(c2ccccc2)c2cc(Cl)ccc21: 0
O=C(O)/C=C/C(=O)O: 0
CO[C@H]1[C@@H](O)[C@H](N)[C@@H](O[C@H]2O[C@H]([C@H](C)N)CC[C@H]2N)[C@H](O)[C@@H]1N(C)C(=O)CN: 0
CC1=C(C/C=C(\C)CCC[C@H](C)CCC[C@H](C)CCCC(C)C)C(=O)c2ccccc2C1=O: 0
N[C@@H](C(=O)N[C@@H]1C(=O)N2C(C(=O)O)=C(Cl)CS[C@H]12)c1ccccc1 [CEFACLOR ANHYDROUS]: 0
Cc1cc(NS(=O)(=O)c2ccc(N)cc2)nc(C)n1: 0

Q) Give recorded Hepatotoxicity (steatosis). O=C1CN(/N=C/c2ccc([N+](=O)[O-])o2)C(=O)N1CO
A) 0

Q) Answer with the recorded Hepatotoxicity (steatosis) of CCc1cccc2c3c([nH]c12)C(CC)(CC(=O)O)OCC3 (stereo not drawn) only.
A) 1

###

This section presents compounds with their documented Hepatotoxicity (severe hepatitis) values.
Conditions: human

Worked set:
O=C1c2ccccc2C(=O)C1c1ccccc1: 1
FC(F)OC(F)C(F)(F)F (centres undefined): 3
C[C@@H]1CN(c2c(F)c(N)c3c(=O)c(C(=O)O)cn(C4CC4)c3c2F)C[C@H](C)N1: 0
CC(=O)CC(c1ccc([N+](=O)[O-])cc1)c1c(O)c2ccccc2oc1=O (centres undefined): 0
O=C(NCCN1CCC(n2c(=O)[nH]c3cc(Cl)ccc32)CC1)c1ccc(F)cc1 [HALOPEMIDE]: 0
CC1COc2c(N3CCN(C)CC3)c(F)cc3c(=O)c(C(=O)O)cn1c23 (centres undefined): 2

Q) Look up and state reported Hepatotoxicity (severe hepatitis) for CC[N+](C)(C/C=C/C1=C(C(=O)[O-])N2C(=O)[C@@H](NC(=O)/C(=N\OCF)c3nsc(N)n3)[C@H]2SC1)CC(N)=O (some centres undefined)
A) 0

Q) Kindly indicate its recorded Hepatotoxicity (severe hepatitis). Item: O[C@H]1[C@H]2[C@H](O)CCCN2C[C@H]1O
A) 0

Q) Recall and state the measured Hepatotoxicity (severe hepatitis) for Oc1ccc2[nH]cc(CCCCN3CC=C(c4ccccc4)CC3)c2c1 .
A) 0

###

Assay: Highest frequency of acute liver toxicity observed during clinical trials, expressed as a percentage. [column '% AIGUE' in source]
Conditions: human
Observed property: Hepatotoxicity (acute) (%)
Provide the reading as a plain figure in %.

Q) For the compound Cc1c(C)c2c(c(C)c1O)CCC(C)(COc1ccc(CC3SC(=O)NC3=O)cc1)O2 (stereo not drawn) , report Hepatotoxicity (acute).
A) 5

Q) Determine its reported Hepatotoxicity (acute): CC(=O)Nc1nnc(S(N)(=O)=O)s1 [ACETAZOLAMIDE]
A) 0

###

Details: human, serum, 4383 h
Observed property: Hepatotoxicity (chronic liver disease)
// no unit, no text: just the number

N[C@@H](Cc1ccc(O)c(O)c1)C(=O)O [LEVODOPA]: 0
Oc1ncc(N(CCCl)CCCl)c(O)n1 [URACIL MUSTARD]: 1
CCCCOCC(CN1C(=O)N(CC(COCCCC)OC(N)=O)C(=O)C(CC)(c2ccccc2)C1=O)OC(N)=O (centres undefined) [DIFEBARBAMATE]: 0
NS(=O)(=O)OCCCCCCCOS(N)(=O)=O: 0
CCCCCOC(=O)Nc1nc(=O)n([C@@H]2O[C@H](C)[C@@H](O)[C@H]2O)cc1F [CAPECITABINE]: 0

Q) State its Hepatotoxicity (chronic liver disease) for this compound: O=c1[nH]c(=O)n([C@@H]2O[C@H](CO)[C@@H](O)[C@@H]2O)cc1/C=C/Br [SORIVUDINE]
A) 0

Q) Give the value of Hepatotoxicity (chronic liver disease) reported for the following: C[C@H](CCC(=O)O)[C@H]1CC[C@H]2[C@@H]3[C@H](O)C[C@@H]4C[C@H](O)CC[C@]4(C)[C@H]3CC[C@]12C [CHENODIOL]
A) 1

Q) Return reported Hepatotoxicity (chronic liver disease). Input compound: O=C1c2ccccc2C(=O)C1c1ccc(F)cc1 [FLUINDIONE]
A) 0

Q) Provide one value: measured Hepatotoxicity (chronic liver disease) of O=C(O)[C@@H](S)[C@@H](S)C(=O)O
A) 0

###

Item-by-item account of Hepatotoxicity (moderate)
Test: Highest frequency of moderate liver toxicity observed during clinical trials, expressed as a percentage. [column '% BIOL' in source]
Settings: human
Only the number, expressed in %, is required.

NCCCNc1ccc2c3c(nn2CCNCCO)-c2c(O)ccc(O)c2C(=O)c13 [PIROXANTRONE]: 9.1
O=NN(CCCl)C(=O)N[C@H]1C(O)O[C@H](CO)[C@@H](O)[C@@H]1O (some centres undefined) [CHLOROZOTOCIN]: 33
CN1c2ccccc2C(NCCCCCCC(=O)O)c2ccc(Cl)cc2S1(=O)=O (centres undefined) [TIANEPTINE]: 0
COC1=C(C(=O)O)N2C(=O)[C@@H](NC(=O)[C@H](N)C3=CCC=CC3)[C@H]2SC1 [CEFROXADINE]: 2
CC1=C(C(=O)O)N2C(=O)[C@@H](NC(=O)[C@H](N)C3=CCC=CC3)[C@H]2SC1 [CEPHRADINE]: 24.3

Q) Tell me its Hepatotoxicity (moderate) given CCc1oc2ccccc2c1C(=O)c1cc(I)c(O)c(I)c1 [BENZIODARONE] as the entry.
A) 0

Q) Quick one: give measured Hepatotoxicity (moderate) for CO/N=C1\CN(c2nc3c(cc2F)c(=O)c(C(=O)O)cn3C2CC2)CC1CN (centres undefined) [GEMIFLOXACIN]
A) 0.3

###

Conditions: human
Entries and their Hepatotoxicity (severe hepatitis)
// no unit, no text: just the number

CC1(C)S[C@@H]2[C@H](NC(=O)[C@H](C(=O)O)c3ccsc3)C(=O)N2[C@H]1C(=O)O: 0
CC(C)N(CCC(C(N)=O)(c1ccccc1)c1ccccn1)C(C)C (configuration not stated) [DISOPYRAMIDE]: 0
CCC(c1ccccc1)c1c(O)c2ccccc2oc1=O (configuration not stated): 4
N[C@@H](Cc1ccc(O)c(O)c1)C(=O)O: 0

Q) Quote Hepatotoxicity (severe hepatitis) reported for COc1cc(C(=O)NS(=O)(=O)c2ccccc2C)ccc1Cc1cn(C)c2ccc(NC(=O)OC3CCCC3)cc12 please.
A) 3

Q) Quickly give me recorded Hepatotoxicity (severe hepatitis) for C[C@@H](O)[C@H]1C(=O)N2C(C(=O)O)=C(S[C@@H]3CN[C@H](C(=O)N(C)C)C3)[C@H](C)[C@H]12
A) 0

Q) // fetch Hepatotoxicity (severe hepatitis) given entry N[C@@H](C(=O)N[C@@H]1C(=O)N2C(C(=O)O)=C(Cl)CC[C@H]12)c1ccccc1 [LORACARBEF ANHYDROUS]
A) 0

Q) Please supply the value of reported Hepatotoxicity (severe hepatitis) for the item O=c1[nH]c(=O)n(C2CCCO2)cc1F (configuration not stated)
A) 3

###

Assay: Highest frequency of moderate liver toxicity observed during clinical trials, expressed as a percentage. [column '% BIOL' in source]
Conditions: human
# Hepatotoxicity (moderate) listing for each entry below
Provide only the numeric value, understood in %.

# example entries with known answers
CC(=O)N1CCN(c2ccc(OCC3COC(Cn4ccnc4)(c4ccc(Cl)cc4Cl)O3)cc2)CC1 (centres undefined) [KETOCONAZOLE]: 50
CNC(=C[N+](=O)[O-])NCCSCc1ccc(CN(C)C)o1 [RANITIDINE]: 18.6
CC1(C)S[C@@H]2[C@H](NC(=O)C(c3ccccc3)S(=O)(=O)O)C(=O)N2[C@H]1C(=O)O (some centres undefined) [SULBENICILLIN]: 6.7

# ---- query compound ----
Q) Please give the documented Hepatotoxicity (moderate) of Oc1ccc2[nH]cc(CCCCN3CC=C(c4ccccc4)CC3)c2c1 [ROXINDOLE]
A) 10

###

Listed compounds paired with reported Hepatotoxicity (moderate)
Assay: Highest frequency of moderate liver toxicity observed during clinical trials, expressed as a percentage. [column '% BIOL' in source]
Details: human
Param answer (str): number followed by unit.

CO/N=C(\C(=O)N[C@@H]1C(=O)N2C(C(=O)O)=C(CSc3nc(=O)c(=O)[nH]n3C)CS[C@H]12)c1csc(N)n1: 30%
COc1ccc(Cl)cc1C(=O)NCCc1ccc(S(=O)(=O)NC(=O)NC2CCCCC2)cc1 [GLYBURIDE]: 6.7%

Q) Please report Hepatotoxicity (moderate) for the following compound: C[C@]12CC[C@@H]3c4ccc(OC(=O)N(CCCl)CCCl)cc4CC[C@H]3[C@@H]1CC[C@@H]2O
A) 2%

Q) Please give the documented Hepatotoxicity (moderate) of O=C[C@H](O)[C@@H](O)[C@H](O)[C@H](O)CO[C@H]1O[C@H](CO[C@H]2O[C@H](CO)[C@@H](O)[C@H](O)[C@H]2O)[C@@H](O)[C@H](O)[C@H]1O
A) 43.7%

Q) Assign Hepatotoxicity (moderate) to the following record: c1ccc(C2(c3ccccc3)CC2C2=NCCN2)cc1 (configuration not stated)
A) 4.1%

Q) Using the record for CCN[C@@H]1C[C@H](N)[C@@H](O[C@H]2OC(CN)=CC[C@H]2N)[C@H](O)[C@H]1O[C@H]1OC[C@](C)(O)[C@H](NC)[C@H]1O , state its measured Hepatotoxicity (moderate).
A) 29.4%

Q) Please give measured Hepatotoxicity (moderate) of the following entry: O=NN(CCCl)C(=O)NC1CCCCC1
A) 39%
